Listed here are molecules together with their documented z.
tested on: SOX2; experiment: Screen of a library of FDA-approved drugs for SOX2 antibody staining in A375 cells treated with PLX4720 and AZD6244; details: Z-test against negative controls (DMSO); single dose 5 uM
Counter-ions that a name gives are not always drawn.

Known z results, listed for orientation:
Cc1cc(C#N)cc(C)c1Oc1nc(Nc2ccc(C#N)cc2)nc(N)c1Br : 6.907
CCCCc1oc2ccc(NS(C)(=O)=O)cc2c1C(=O)c1ccc(OCCCN(CCCC)CCCC)cc1 [DRONEDARONE HYDROCHLORIDE] : 52.01
C[C@H]1C[C@@H]2[C@H]([C@@H](O)C[C@@]3(C)[C@H]2CC[C@]3(O)C(=O)COC(=O)CCC(=O)O)[C@@]2(C)C=CC(=O)C=C12 [METHYLPREDNISOLONE SODIUM SUCCINATE] : 5.452

Bench note, SOX2: entry `CN1C[C@H](CNC(=O)OCc2ccccc2)C[C@@H]2c3cccc4c3c(cn4C)C[C@H]21` , its z = 4.666

The reported z value, SOX2, for Nc1ccc2cc3ccc(N)cc3nc2c1 [PROFLAVINE HEMISULFATE] reads 3.749

Lab entry: SOX2 assay, molecule `C[C@]12CCC(=O)C(O)=C1CC[C@@H]1[C@@H]2CC[C@]2(C)C(=O)CC[C@@H]12` , z = 4.633

// z (SOX2) for O=C(Nc1ccc([N+](=O)[O-])cc1Cl)c1cc(Cl)ccc1O [NICLOSAMIDE] = 9.828

---

test system: SOX2; assay: Screen of a library of FDA-approved drugs for SOX2 antibody staining in A375 cells treated with PLX4720 and AZD6244; conditions: A375 cells, 5 uM test drug with 1 uM PLX4720 and 0.5 uM AZD6244, 24 h; normalized and geometry-corrected (loess) signal
Structures can show the parent of a compound that is named as a salt.
measurement name: cor. loess
In your answer, state the number alone without any accompanying words.

CCN(CC)Cc1cc(Nc2ccnc3cc(Cl)ccc23)ccc1O [AMODIAQUINE DIHYDROCHLORIDE] : 0.9308
CC[C@H]1CN2CCc3cc(OC)c(OC)cc3[C@@H]2C[C@@H]1C[C@H]1NCCc2cc(OC)c(OC)cc21 [EMETINE DIHYDROCHLORIDE] : 1.429
CO[C@H]1C[C@H](O[C@@H]2/C(C)=C/C[C@@H]3C[C@@H](C[C@]4(CC[C@H](C)[C@@H](C5CCCCC5)O4)O3)OC(=O)[C@@H]3C=C(C)/C(=N/O)[C@H]4OC/C(=C\C=C\[C@@H]2C)[C@]43O)O[C@@H](C)[C@@H]1O : 0.533
CC(=O)OCC(=O)[C@@]12OC(C)(C)O[C@@H]1C[C@H]1[C@@H]3C[C@H](F)C4=CC(=O)C=C[C@]4(C)[C@@]3(F)[C@@H](O)C[C@@]12C [FLUOCINONIDE] : 0.4293
O=c1[nH]c(=O)n([C@H]2C[C@H](O)[C@@H](CO)O2)cc1I : 0.715

Now turn to the next compound.
Item: `COC(=O)Nc1nc2ccc(Sc3ccccc3)cc2[nH]1` | System: SOX2 | cor. loess: 0.4709

---

system: SOX2; assay: Screen of a library of FDA-approved drugs for SOX2 antibody staining in A375 cells treated with PLX4720 and AZD6244; settings: Z-test against negative controls (DMSO); single dose 5 uM
Structures can show the parent of a compound that is named as a salt.
measurement name: z
Could you keep your reply to the number by itself?

Past entries and their recorded results:
CCCC(=O)O[C@]1(C(=O)COC(C)=O)CC[C@H]2[C@@H]3C[C@H](F)C4=CC(=O)C=C[C@]4(C)[C@@]3(F)[C@@H](O)C[C@@]21C [Difluprednate] : 4.842
Nc1ccccc1NC(=O)c1ccc(CNC(=O)OCc2cccnc2)cc1 [Entinostat (MS-275), Entinostat] : 5.41
C[C@@H]1C[C@H]2[C@@H]3CCC4=CC(=O)C=C[C@]4(C)[C@@]3(F)[C@@H](O)C[C@]2(C)[C@@]1(O)C(=O)COP(=O)(O)O [DEXAMETHASONE SODIUM PHOSPHATE] : 4.367
O=[N+]([O-])C(Br)(CO)CO [BRONOPOL] : 4.996
COc1cc([C@@H]2c3cc4c(cc3[C@@H](O[C@@H]3O[C@@H]5CO[C@@H](c6cccs6)O[C@H]5[C@H](O)[C@H]3O)[C@H]3COC(=O)[C@H]23)OCO4)cc(OC)c1O [TENIPOSIDE] : 8.769

According to the records, this compound Cc1cnc(Nc2ccc(OCCN3CCCC3)cc2)nc1Nc1cccc(S(=O)(=O)NC(C)(C)C)c1 [TG101348 (SAR302503)] displays z of 5.665

Field z (entry CCCCN1CCCCC1C(=O)Nc1c(C)cccc1C (centres unmarked) [BUPIVACAINE HYDROCHLORIDE] ) reads 3.991
